# Lookup of reported dynamic binding capacity at 10% breakthrough keyed by entry
Target: GH (GH stock solution) (UniProt P01241)
Sequence (P01241 27-217 limits assumed): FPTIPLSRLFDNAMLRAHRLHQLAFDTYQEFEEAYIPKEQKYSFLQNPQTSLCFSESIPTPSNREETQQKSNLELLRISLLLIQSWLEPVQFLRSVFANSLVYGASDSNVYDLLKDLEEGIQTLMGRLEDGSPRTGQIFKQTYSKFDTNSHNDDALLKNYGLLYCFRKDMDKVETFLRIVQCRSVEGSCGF
Test: affinity chromatography, VHH-conjugated medium loaded with GH stock solution; medium in 0.1M NaOH 32h
metricName: dynamic binding capacity at 10% breakthrough

- binder: "M68 (Second round) (VHH, Entry already carries A15P; R19T); tail DDDDK-SGGGGS-HHHHHH) VHH: QVQLVESGGGLAQPGGSLTLSCAVSGMPEFARAMGWFRQAPGKERELLAAIEGIGATTYYADSVKGRFTISRDDAANTVLLQMNSLKPDDTAVYYCAAAFSVTIPTRARHWVDWGPGTLVTVSS"
  reported: 15.4
- binder: "WT (with tag), unmodified GH single-domain antibody molecule (VHH) VHH: QVQLVESGGGLAQAGGSLRLSCAVSGMPEFARAMGWFRQAPGKERELLAAIEGIGATTYYADSVKGRFTISRDDAANTVLLQMNSLKPDDTAVYYCAAAFSVTIPTRARHWVDWGPGTLVTVSS"
  reported: 14.7
